Target: CymA (Shewanella oneidensis, UniProt Q8E8S0)
Sequence (Q8E8S0 1-187): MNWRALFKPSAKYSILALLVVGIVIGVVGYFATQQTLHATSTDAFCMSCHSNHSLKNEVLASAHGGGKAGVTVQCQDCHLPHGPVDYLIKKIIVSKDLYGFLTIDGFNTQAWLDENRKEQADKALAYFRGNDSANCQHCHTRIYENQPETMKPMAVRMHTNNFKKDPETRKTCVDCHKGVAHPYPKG
pKi: −log10 of the molar value.

- compound: "CCCCCCCc1cc(O)c2ccccc2[n+]1[O-] [HQNO]"
  pKi: 6.10
